Listed here are sequences together with their documented P8_MyD88 Rank (before).
# target-or-system: MyD88^TIR (Homo sapiens)
# Construct: MyD88 (residues 148–296); 6xHis; made in house; host or cells: E. coli BL21 (DE3)
# experiment: T‐Surf phage library (P8 and P3) selection against MyD88^TIR, four rounds, NGS read counts
# Format: binding
# assay-conditions: P8 library, selection against MyD88, rank by count before grouping
# Protocol: T‐Surf libraries were screened against the immobilized TIR domains of two major human TLR adaptor proteins, MAL^TIR and MyD88^TIR, allowing cross‐species selection of TIR‐binding motifs with 190 946 TIR‐derived peptides in a single binding assay (Scheme 1). Enriched phage pools from the fourth round of selection were analyzed using NGS after barcoding the peptide‐coding regions of the phage pools. […]

| ordered-residues | target-or-system | obs-value |
| --- | --- | --- |
| DPQVLERKYERLVKLV | MyD88^TIR (Homo sapiens) | 2650 |
| DMQDIEWFYVKLIVSI | MyD88^TIR (Homo sapiens) | 3064 |
| YASYDDNDYYWLTNVLLRLL | MyD88^TIR (Homo sapiens) | 1778 |
| PQDLDWFYERLVSQM | MyD88^TIR (Homo sapiens) | 3426 |

From here, focus on the item given below.
Quick one: P8_MyD88 Rank (before) for LGYHLIVWEYFVGIED ?
3227

====

# target-or-system: MAL^TIR (Homo sapiens, UniProt P58753)
# Construct: MAL (residues 79–221); 6xHis; made in house; host or cells: E. coli BL21 (DE3)
# Sequence (P58753 79-221): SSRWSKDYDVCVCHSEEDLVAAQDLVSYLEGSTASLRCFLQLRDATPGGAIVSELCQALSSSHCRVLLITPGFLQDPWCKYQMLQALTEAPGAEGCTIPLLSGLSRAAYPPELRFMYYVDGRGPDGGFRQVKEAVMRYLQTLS
# experiment: T‐Surf phage library (P8 and P3) selection against MAL^TIR, four rounds, NGS read counts
# Assay type: binding
# assay-conditions: P3_MAL: rank by count after grouping
Listed here are sequences together with their documented Rank (after).
Kindly provide the number alone.

These solved cases illustrate the format of a correct answer.
| ordered-residues | endpoint-name | obs-value |
| --- | --- | --- |
| PNLRTNVLHYLMRTKT | Rank (after) | 171 |
| RFWERLRYMMPDSSL | Rank (after) | 449 |
| PNLRTKVLHHLMRTKP | Rank (after) | 405 |
| DWFREQLRPALKERLP | Rank (after) | 125 |
| MSMRPGDRLQRSGI | Rank (after) | 454 |

Quick one: Rank (after) for NQWRNAQTAAAKLSGW ?
152

Quick one: Rank (after) for GFLSHLRHHLQAKDH ?
127

Quick one: Rank (after) for LKVESWRDALTKVASL ?
142

Quick one: Rank (after) for LSGWAFKRGSCAEYEY ?
398

====

# target-or-system: MyD88^TIR (Homo sapiens, UniProt Q99836)
# Construct: MyD88 (residues 148–296); 6xHis; made in house; host or cells: E. coli BL21 (DE3)
# Sequence (Q99836 148-296): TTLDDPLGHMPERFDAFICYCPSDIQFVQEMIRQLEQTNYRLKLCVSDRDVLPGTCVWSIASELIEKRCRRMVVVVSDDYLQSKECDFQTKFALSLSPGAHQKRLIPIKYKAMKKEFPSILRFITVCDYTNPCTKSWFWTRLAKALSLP
# experiment: T‐Surf phage library (P8 and P3) selection against MyD88^TIR, four rounds, NGS read counts
# Format: binding
# assay-conditions: P8 library, selection against MyD88, rank by count after grouping
Listed here are sequences together with their documented P8_MyD88 Rank (after).
Kindly provide the number alone.

These solved cases illustrate the format of a correct answer.
| ordered-residues | target-or-system | P8_MyD88 Rank (after) |
| --- | --- | --- |
| LGYHWIDLGYFVGIED | MyD88^TIR (Homo sapiens, UniProt Q99836) | 767 |
| DPQVLERKYERLVKLV | MyD88^TIR (Homo sapiens, UniProt Q99836) | 718 |
| PQDLDWFYERLVSQM | MyD88^TIR (Homo sapiens, UniProt Q99836) | 716 |

Quick one: P8_MyD88 Rank (after) for SGQAVTEDKLGWLSNP ?
682

Quick one: P8_MyD88 Rank (after) for WALAELLKILYAKEPM ?
763

Quick one: P8_MyD88 Rank (after) for DPQVRVWFYERLVSLF ?
755

Quick one: P8_MyD88 Rank (after) for CALCELLQILHARGLF ?
725

Quick one: P8_MyD88 Rank (after) for DSLIWDRLLYSIKVTE ?
737

Quick one: P8_MyD88 Rank (after) for WRDALNNISSIFGWVA ?
764

Quick one: P8_MyD88 Rank (after) for DLLVLEWFYERVFSQM ?
713
